// reported TGI for each item listed
test system: SF-268 CNS; assay: NCI tumour cell line growth inhibition, 48 h

{"compound": "c1ccc2c(c1)n1nnnc1c1nnnn21", "units": "µM", "sign qualifier": ">", "TGI": 100}
{"compound": "C#CCN(CCCOc1ccc(Cl)cc1Cl)CCCSC(=O)CCCCCN1/C(=C\\C=C2/CCCC(/C=C/C3=[N+](CCCCCC(=O)[O-])c4ccccc4C3(C)C)=C2Cl)C(C)(C)c2ccccc21", "units": "µM", "sign qualifier": "=", "TGI": 6.74}
{"compound": "COc1cc2c(cc1OC)C(Sc1ccc(Cl)cc1)c1c(nc(N)c(C#N)c1N)O2 (stereo not drawn)", "units": "µM", "sign qualifier": "=", "TGI": 3.17}
{"compound": "Fc1cccc(C2ON=C(c3ccccc3)N2C23CC4CC(CC(C4)C2)C3)c1 (stereo not drawn)", "units": "µM", "sign qualifier": ">", "TGI": 10}
{"compound": "CC1CC[C@@]2(OC1)OC1C[C@H]3[C@@H]4CC=C5C[C@@H](OC6OC(CO)C(OC7OC(CO)C(O)C(O)C7O)C(O)C6OC6OC(C)C(O)C(O)C6O)CC[C@]5(C)[C@H]4CC[C@]3(C)C1[C@@H]2C (stereo partly drawn)", "units": "µM", "sign qualifier": "=", "TGI": 1.2}
{"compound": "CCOC(=O)NCC(=O)NCC(=O)NCC(N)=O", "units": "µM", "sign qualifier": ">", "TGI": 100}
{"compound": "CC(C)NC(=O)OCCN=C1c2ccccc2C(Br)C(Br)c2ccccc21 (stereo not drawn)", "units": "µM", "sign qualifier": "=", "TGI": 38.7}
{"compound": "Oc1ccccc1/C=N/c1nc(-c2ccccc2)cs1", "units": "µM", "sign qualifier": ">", "TGI": 100}

====

compounds and their reported GI50
tested on: SF-295 CNS; experiment: NCI tumour cell line growth inhibition, 48 h

{"structure notation": "Cn1cc(C2=C(c3cccc([N+](=O)[O-])c3)C(=O)NC2=O)c2ccccc21", "GI50": "2.14 µM"}
{"structure notation": "Nc1nc2c([nH]1)c1[nH]c3ccccc3c1c1[nH]c3ccccc3c21", "GI50": "13.9 µM"}
{"structure notation": "OCCN1CCCN(CCCN2c3ccccc3Sc3ccc(C(F)(F)F)cc32)CC1", "GI50": "1.76 µM"}
{"structure notation": "Cc1ncc([N+](=O)[O-])n1CCOc1ccc(C(=O)/C=C/c2ccc(C(F)(F)F)cc2)cc1", "GI50": "3.47 µM"}
{"structure notation": "Clc1cc(Cl)cc(Nc2ccc3c(OCCCN4CCOCC4)cccc3n2)c1", "GI50": "1.92 µM"}
{"structure notation": "COc1ccc(-c2nn(-c3cccc(Cl)c3)cc2-c2c(C#N)c(=O)n3[nH]c(-c4ccc(C)o4)nc3c2C#N)cc1", "GI50": "3.46 µM"}
{"structure notation": "CN1CCC(C(=O)Nc2n[nH]c3nnc(-c4ccccc4)cc23)CC1", "GI50": "17.5 µM"}

====

tested on: IGROV1 ovarian; assay: NCI tumour cell line growth inhibition, 48 h
We begin with a simple list: items and their reported TGI.
measured parameter: TGI

{"compound": "CNc1ccc(CSc2ccc(C)cc2)cc1", "measured parameter": "TGI", "experimental value": "> 100 µM"}
{"compound": "NCC[PH+](c1ccccc1)c1ccccc1.NCC[PH+](c1ccccc1)c1ccccc1.[Cl-].[Pt+4]", "measured parameter": "TGI", "experimental value": "> 100 µM"}
{"compound": "NCC1OC(OC2C(N)CC(N)C(O)C2OC2OC(CO)C(O)C2O)C(N)C(O)C1O (stereo not given)", "measured parameter": "TGI", "experimental value": "> 100 µM"}
{"compound": "CC(=O)N1CN2C(=O)CCC2c2cc(C)ccc21 (stereo not given)", "measured parameter": "TGI", "experimental value": "> 100 µM"}
{"compound": "COc1cc(C2C3=C(NC(=O)C2C#N)c2ccc4ccccc4c2OCC3)cc(OC)c1OC (stereo not given)", "measured parameter": "TGI", "experimental value": "36.9 µM"}

====

test system: UACC-257 melanoma; assay: NCI tumour cell line growth inhibition, 48 h

{"molecule": "CN(Cc1cnc2nc(N)nc(N)c2n1)c1c(Cl)cc(C(=O)NC(CCC(=O)O)C(=O)O)cc1Br (configuration not stated)", "TGI": "> 100 µM"}
{"molecule": "COC1CCC(OS(C)(=O)=O)C(C)O1 (configuration not stated)", "TGI": "> 10 µM"}
{"molecule": "COc1ccc(-c2nc3sccn3c2/C=C/C(=O)c2cc(OC)c(OC)c(OC)c2)cc1", "TGI": "78.7 µM"}
{"molecule": "CSc1ccc2c(c1)N(CCCN(C)C)c1ccccc1S2", "TGI": "19.9 µM"}
{"molecule": "Cc1cc(S(=O)(=O)NC2=NCc3c(F)cccc3N2)c(S)cc1Cl", "TGI": "> 100 µM"}
{"molecule": "Fc1cccc(C2ON=C(c3ccccc3)N2C23CC4CC(CC(C4)C2)C3)c1 (configuration not stated)", "TGI": "> 10 µM"}
{"molecule": "O=C(/C=N/O)Nc1cccc(Cl)c1I", "TGI": "> 100 µM"}
{"molecule": "Nc1nc2c([nH]1)c1[nH]c3ccccc3c1c1[nH]c3ccccc3c21", "TGI": "33.4 µM"}
{"molecule": "CC1(C)O[C@@H](CCl)C[C@@H](C#N)O1", "TGI": "> 100 µM"}
{"molecule": "COc1cc(OC)c(OC)cc1/C=C\\c1ccnc2ccccc12", "TGI": "> 100 µM"}
{"molecule": "O=C(c1ccccc1)C1C(c2ccccc2[N+](=O)[O-])N1C1CCCCC1 (configuration not stated)", "TGI": "8.88 µM"}
{"molecule": "COc1cc(COC(=O)N(C)[C@@H](Cc2ccccc2)C(=O)O)c([N+](=O)[O-])cc1OC", "TGI": "> 100 µM"}

====

Recorded TGI values for a group of compounds are listed next.
system: OVCAR-4 ovarian; assay: NCI tumour cell line growth inhibition, 48 h

{"compound": "Oc1ccccc1/C=N/c1nc(-c2ccccc2)cs1", "TGI": "> 100 µM"}
{"compound": "COc1cc(OC)c(OC)cc1/C=C\\c1ccnc2ccccc12", "TGI": "> 100 µM"}
{"compound": "CCOC(=O)/C=C(/OCC)[C@@H]1C(C(=O)c2ccc(Cl)cc2)[C@@H]1/C(=C\\C(=O)OCC)OCC (stereo not given in full)", "TGI": "> 100 µM"}
{"compound": "O=C(NCCNC1=CC(=O)c2nc3ccccc3c3ccnc1c23)c1cnccn1", "TGI": "> 100 µM"}
{"compound": "Nc1c([N+](=O)[O-])ncn1C1OC(CO)C(O)C1O (stereo not given)", "TGI": "> 100 µM"}
{"compound": "CCn1c(-c2cc3ccccc3cc2OC(C)=O)n[nH]c1=S", "TGI": "> 100 µM"}
{"compound": "CCOC(=O)CSc1nc(-c2ccc(Cl)cc2)c(C#N)c(=O)[nH]1", "TGI": "> 100 µM"}
{"compound": "O=C([CH-]C(=O)c1ccccc1)c1ccccc1.[CH2-]C.[CH2-]C.[Tl+3]", "TGI": "> 100 µM"}
{"compound": "CC(C)(C)c1cc(C(C)(C)C)c2sc(=O)oc2c1O", "TGI": "27.6 µM"}
{"compound": "c1ccc(CN2CCC(CNc3ncnc4ccccc34)C2)cc1 (stereo not given)", "TGI": "> 100 µM"}
{"compound": "O=C(c1ccccc1)C1C(c2ccccc2[N+](=O)[O-])N1C1CCCCC1 (stereo not given)", "TGI": "22.7 µM"}
{"compound": "O=C(CC/C(CC(=O)c1ccc(Cl)cc1)=N\\O)Nc1cccc(Cl)c1", "TGI": "> 100 µM"}
{"compound": "Cc1cc(=O)[nH]c2c1C(=O)c1c(C)cc(=O)n(C)c1C2=O", "TGI": "0.378 µM"}
{"compound": "Cc1c(C)c2c(c(N)c1C#N)C(=O)N(NC(=S)Nc1ccccc1)C2=O", "TGI": "> 100 µM"}
{"compound": "CC(=O)N1CN2C(=O)CCC2c2cc(C)ccc21 (stereo not given)", "TGI": "> 100 µM"}
{"compound": "COc1ccc(C2NC(c3ccc(OC)cc3)C(C)C(=O)C2C)cc1 (stereo not given)", "TGI": "> 100 µM"}
{"compound": "CCOC(=O)C(=O)Nc1nc2ccc(OC)cc2s1", "TGI": "> 100 µM"}
{"compound": "COc1ccccc1-c1cc(=O)c2cccnc2[nH]1", "TGI": "> 100 µM"}
{"compound": "CNc1ccc(CSc2ccc(C)cc2)cc1", "TGI": "> 100 µM"}
{"compound": "Cc1cc(C)c(C2=NO[C@@H]3[C@H]2C(=O)C=C2N(Cc4ccccc4)CCO[C@@]23O)c(C)c1", "TGI": "> 100 µM"}
{"compound": "CC1=NN(c2cc(Cl)c(S(=O)(=O)O)cc2Cl)C2(C1)C(Cl)C(=O)N2c1nc2ccccc2s1 (stereo not given)", "TGI": "> 100 µM"}
{"compound": "CC[P+](c1ccccc1)(N(C)C)N(C)C", "TGI": "> 100 µM"}
{"compound": "Nc1ncnc2c1ncn2C1C(O)C=C(CO)C1O (stereo not given)", "TGI": "> 625 µM"}
{"compound": "CCN(CCCl)c1cc(CN(C)C)cc(NC(=O)c2ccc(C(=O)Nc3cccc(N(CCCl)NN)c3)cc2)c1", "TGI": "0.364 µM"}
{"compound": "COc1cc(/C=C2\\C(=O)N(c3ccc(Cl)cc3)C(c3ccccc3)S2(=O)=O)cc(OC)c1OC (stereo not given)", "TGI": "> 100 µM"}
{"compound": "O=S1(=O)CS(=O)(=O)OCCCCCO1", "TGI": "> 100 µM"}
{"compound": "Cc1c(C(=O)/C=C/c2ccc3c(c2)OCO3)[n+](=O)c2ccccc2n1[O-]", "TGI": "> 100 µM"}
{"compound": "Cc1cc(C)n(C(C)(C(=O)Cc2ccccc2)n2nc(C)cc2C)n1", "TGI": "> 100 µM"}
{"compound": "c1ccc(-c2nc3ccccc3[nH]2)c(OCCCCCOc2ccccc2-c2nc3ccccc3[nH]2)c1", "TGI": "8.97 µM"}
{"compound": "O=[N+]([O-])/C(=C/C=C/c1ccccc1)c1ccccc1", "TGI": "7.22 µM"}
